A collection of molecules and their measured range of MICs (N <10, shown instead of MIC90)
- Tested on: E. faecalis VNS
- protocolDescription: In vitro MIC, 2010 surveillance isolates
- Type: cell-based
- appliedConditions: Asia/Pac; N=1

Worked set:
sampleSmiles	endpointValue
CO/N=C(\C(=O)N[C@@H]1C(=O)N2C(C(=O)O)=C(CSc3nc(=O)c(=O)[nH]n3C)CS[C@H]12)c1csc(N)n1	>8
C[C@H]1COc2c(N3CCN(C)CC3)c(F)cc3c(=O)c(C(=O)O)cn1c23	>4

We next turn to a different molecule, shown below.
Request: Query (molecule): CN[C@H](CC(C)C)C(=O)N[C@H]1C(=O)N[C@@H](CC(N)=O)C(=O)N[C@H]2C(=O)N[C@H]3C(=O)N[C@H](C(=O)N[C@H](C(=O)O)c4cc(O)cc(O)c4-c4cc3ccc4O)[C@H](O)c3ccc(c(Cl)c3)Oc3cc2cc(c3O[C@@H]2O[C@H](CO)[C@@H](O)[C@H](O)[C@H]2O[C@H]2C[C@](C)(N)[C@H](O)[C@H](C)O2)Oc2ccc(cc2Cl)[C@H]1O ; field requested: range of MICs (N <10, shown instead of MIC90)
Result: >16

====

- System: MR CoNS
- protocolDescription: In vitro MIC, 2010 surveillance isolates
- Format: cell-based, Coagulase-Negative Staphylococcus
- appliedConditions: N America; N=461
reportedEndpoint: MIC90

Request: Query (molecule): CO/N=C(\C(=O)N[C@@H]1C(=O)N2C(C(=O)O)=C(CSc3nc(=O)c(=O)[nH]n3C)CS[C@H]12)c1csc(N)n1 ; field requested: MIC90
Result: > 8 µg/mL

Request: Query (molecule): C[C@H]1COc2c(N3CCN(C)CC3)c(F)cc3c(=O)c(C(=O)O)cn1c23 ; field requested: MIC90
Result: > 4 µg/mL

Request: Query (molecule): C[C@H]1c2cccc(O)c2C(=O)C2=C(O)[C@]3(O)C(=O)C(C(N)=O)=C(O)[C@@H](N(C)C)[C@@H]3[C@@H](O)[C@@H]21 ; field requested: MIC90
Result: 2 µg/mL

Request: Query (molecule): CN(C)c1cc(CNCC(C)(C)C)c(O)c2c1C[C@H]1C[C@H]3[C@H](N(C)C)C(O)=C(C(N)=O)C(=O)[C@@]3(O)C(O)=C1C2=O ; field requested: MIC90
Result: 1 µg/mL

Request: Query (molecule): CN(C)c1cc(NC(=O)CNC(C)(C)C)c(O)c2c1C[C@H]1C[C@H]3[C@H](N(C)C)C(O)=C(C(N)=O)C(=O)[C@@]3(O)C(O)=C1C2=O ; field requested: MIC90
Result: 0.25 µg/mL

====

- Tested on: E. coli ESBL−
- protocolDescription: In vitro MIC, 2010 surveillance isolates
- Assay type: cell-based, Escherichia coli
- appliedConditions: N America; N=1172
reportedEndpoint: MIC90

Worked set:
compound	testSystem	MIC90
C[C@H]1c2cccc(O)c2C(=O)C2=C(O)[C@]3(O)C(=O)C(C(N)=O)=C(O)[C@@H](N(C)C)[C@@H]3[C@@H](O)[C@@H]21 [Doxycycline]	E. coli ESBL−	> 8 µg/mL
CO/N=C(\C(=O)N[C@@H]1C(=O)N2C(C(=O)[O-])=C(C[N+]3(C)CCCC3)CS[C@H]12)c1csc(N)n1 [Cefepime]	E. coli ESBL−	≤ 0.12 µg/mL
C[C@H]1COc2c(N3CCN(C)CC3)c(F)cc3c(=O)c(C(=O)O)cn1c23 [Levofloxacin]	E. coli ESBL−	> 4 µg/mL

We next turn to a different compound, shown below.
Request: Query (compound): C[C@@H](O)[C@H]1C(=O)N2C(C(=O)O)=C(SCCN=CN)C[C@H]12 [Imipenem] ; field requested: MIC90
Result: ≤ 0.12 µg/mL

Provenance of the data: patent US10238670B2
